molecular target: Menin-MLL (Homo sapiens, UniProt O00255); construct: His-Menin (M1-L615 end); purchased BIORTUS BP9210; assay: Inhibitory activity against Menin-MLL binding (fluorescence polarization); details: Menin-MLL IC50, fluorescence polarization; 150 nM His-Menin, 15 nM FITC-MLL; 25°C for 60 min
Sequence (O00255 1-615 isoform O00255-1): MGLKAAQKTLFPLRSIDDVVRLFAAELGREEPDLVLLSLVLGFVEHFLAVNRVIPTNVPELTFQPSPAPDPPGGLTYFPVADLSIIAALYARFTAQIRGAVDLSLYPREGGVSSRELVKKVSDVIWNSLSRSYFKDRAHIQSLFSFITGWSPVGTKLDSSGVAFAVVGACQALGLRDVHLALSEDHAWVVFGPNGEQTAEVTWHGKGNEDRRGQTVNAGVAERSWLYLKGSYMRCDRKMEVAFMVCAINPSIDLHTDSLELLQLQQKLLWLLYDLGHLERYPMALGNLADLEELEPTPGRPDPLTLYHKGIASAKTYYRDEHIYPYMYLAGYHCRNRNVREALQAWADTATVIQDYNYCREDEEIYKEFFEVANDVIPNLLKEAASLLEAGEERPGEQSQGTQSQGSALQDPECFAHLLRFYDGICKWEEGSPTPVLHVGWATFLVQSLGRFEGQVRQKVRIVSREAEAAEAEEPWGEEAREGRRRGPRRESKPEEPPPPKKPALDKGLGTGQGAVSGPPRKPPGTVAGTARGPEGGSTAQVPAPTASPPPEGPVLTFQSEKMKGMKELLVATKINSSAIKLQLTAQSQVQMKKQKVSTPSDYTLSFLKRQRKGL
pIC50 values, listed per item
Note: pIC50 values are expressed as the negative base-10 logarithm of concentration in M.

                                   compound  measurement
0  CCN(C(=O)c1cc(F)ccc1-c1cc(N2CCN(C(=O)C3NC4CCC3CC4)CC2)cn2c(C)nc(Cl)c12)C(C)C (stereo not shown)         7.68
1  CC(C)[C@@H](CCCN1CCN(C)CC1)N1CC(c2cc(-c3ccc(F)cc3C(=O)N3CCOC[C@H]3C)c3cnn(C)c3c2)C1         7.87
2  CNC(=O)[C@H]1CC[C@H](CN2CC(c3cc(-c4ccc(F)cc4C(=O)N4CCOC[C@H]4C)c4c(F)nc(C)n4c3)C2)CC1         7.47
3  Cc1ncc2c(-c3ccc(F)cc3C(=O)N3CCOC[C@H]3C)cc(C3CN([C@H](CCCN4CCN(C5CC5)CC4)C(C)C)C3)cn12         8.49
4  CCN(C(=O)c1cc(F)ccc1-c1cc(C2CCN(C[C@]3(O)CC[C@@H](NS(=O)(=O)CC)CC3)C2)cc2c1cnn2C)C(C)C (stereo partly shown)         7.68

Output pIC50 of `CCN(C(=O)c1cc(F)ccc1-c1cc(C2CN(C(=O)[C@@H]3CCCN3)C2)cn2c(C)nc(Cl)c12)C(C)C` 7.58

Write down pIC50 measured for item `CCS(=O)(=O)N(C)[C@H]1CC[C@H](CN2CC(c3cc(-c4ccc(F)cc4C(=O)N4CCOC[C@H]4C)c4cnn(C)c4c3)C2)CC1` 6.90

Note down pIC50 recorded for CCN(C(=O)c1cc(F)ccc1-c1cc(C2CCN(C[C@H]3CC[C@H](NS(=O)(=O)CC)CC3)C2)cc2cnc(C)n12)C(C)C (mixture of isomers) 7.40

Consider the compound `CCN(C(=O)c1cc(F)ccc1-c1cc([C@@H]2CCN(C[C@]3(O)CC[C@@H](NS(=O)(=O)CC)CC3)C2)cc2c1cnn2C)C(C)C` . State its measured pIC50. 6.46

Note down pIC50 recorded for `CCN(C(=O)c1cc(F)ccc1-c1cc(C2CN(C(=O)[C@@H](NC)C(C)C)C2)cn2c(C)nc(F)c12)C(C)C` 7.41

Please give the documented pIC50 of CCN(C(=O)c1cc(F)ccc1-c1cc(C2CN(C(=O)C3NC4CCC3CC4)C2)cn2c(C)ncc12)C(C)C (stereo not shown) 7.96

Identify measured pIC50 corresponding to CCN(C(=O)c1cc(F)ccc1-c1cc(C2(F)CCN(C[C@]3(O)CC[C@@H](NS(=O)(=O)CC)CC3)C2)cc2c1cnn2C)C(C)C (stereo partly shown) 6.53

// Input: `COCCN(C(=O)c1cc(F)ccc1-c1cc(C2CN([C@H](CCCN3C[C@H]4C[C@@H]3CO4)C(C)C)C2)cn2c(C)ncc12)C(C)C` . Output its pIC50 only. 8.82

###

target: Menin-MLL (Homo sapiens); construct: His-Menin (M1-L615 end); purchased BIORTUS BP9210; test: Inhibitory activity against Menin-MLL binding (fluorescence polarization); conditions: fluorescence polarization; 150 nM His-Menin, 15 nM FITC-MLL; 25°C for 60 min; read-out: Menin-MLL IC50
measured.attribute: IC50 (nM)
Report only the number, with the unit nM understood.

Take a look at these entries with their results.
                                   compound              assay_system  measured_attribute  measurement
0  CCN(C(=O)c1cc(F)ccc1-c1cc(C2CN([C@H](CCCN3CCN(C(CO)CO)CC3)C(C)C)C2)cc2c1cnn2C)C(C)C [Example 433]  Menin-MLL (Homo sapiens)                IC50          3.3
1  CC(=O)N1CCC([C@H](C(C)C)N2CC(c3cc(-c4ccc(F)cc4C(=O)N4CCOC[C@H]4C)c4c(F)nc(C)n4c3)C2)CC1 [Example 357-1]  Menin-MLL (Homo sapiens)                IC50         15.5
2  CCNC(=O)N1CCC([C@H](C)N2CC(c3cc(-c4ccc(F)cc4C(=O)N(CC)C(C)C)c4c(F)nc(C)n4c3)C2)CC1 [Example 282-2]  Menin-MLL (Homo sapiens)                IC50            1
3  CCNC(=O)N1CCC([C@H](C)N2CC(c3cc(-c4ccc(F)cc4C(=O)N4CCOC[C@H]4C)c4c(F)nc(C)n4c3)C2)CC1 [Example 279]  Menin-MLL (Homo sapiens)                IC50            6
4  COC1CCN(CCCC(C(C)C)N2CC(c3cc(-c4ccc(F)cc4C(=O)N4CCOCC4C)c4c(F)nc(C)n4c3)C2)C1 (stereo not shown) [Example 201-1]  Menin-MLL (Homo sapiens)                IC50          2.6

System Menin-MLL (Homo sapiens). Read-out IC50. Item CCN(C(=O)c1cc(F)ccc1-c1cc(C2CN([C@H](CCCN3CC4(C3)CN(C(C)=O)C4)C(C)C)C2)cc2c1cnn2C)C(C)C [Example 409] . Report value. 4

Recall the reported IC50 of CCN(C(=O)c1cc(F)ccc1-c1cc(C2CN(C(CC[C@@H]3COCCN3CCO)C(C)C)C2)cn2c(C)ncc12)C(C)C (stereo partly shown) [Example 469] on Menin-MLL (Homo sapiens) and write it down. 11

Provide measured IC50 on Menin-MLL (Homo sapiens) for CNC(=O)N1CCC(CN2CC(c3cc(-c4ccc(F)cc4C(=O)N4[C@H](C)COC[C@H]4C)c4c(F)nc(C)n4c3)C2)CC1 [Example 222] please. 7

Consider the compound COC1(C(=O)N2CCC(CN3CC(c4cc(-c5ccc(F)cc5C(=O)N5CCOC[C@H]5C)c5c(F)nc(C)n5c4)C3)CC2)CC1 [Example 262] tested on Menin-MLL (Homo sapiens); state its IC50. 257

Give Menin-MLL (Homo sapiens) IC50 for the following compound: Cc1nc(F)c2c(-c3ccc(F)cc3C(=O)N3CCOC[C@H]3C)cc(C3CN(CC4CCN(C(=O)C5CC5)CC4)C3)cn12 [Example 269] 33.5

The measurements presented in this section are drawn from patent EP4782453A1.
